# target system: Phosphatidylinositol 4,5-bisphosphate 3-kinase catalytic subunit alpha isoform (Homo sapiens)
# Sequence (P42336 whole entry, canonical isoform): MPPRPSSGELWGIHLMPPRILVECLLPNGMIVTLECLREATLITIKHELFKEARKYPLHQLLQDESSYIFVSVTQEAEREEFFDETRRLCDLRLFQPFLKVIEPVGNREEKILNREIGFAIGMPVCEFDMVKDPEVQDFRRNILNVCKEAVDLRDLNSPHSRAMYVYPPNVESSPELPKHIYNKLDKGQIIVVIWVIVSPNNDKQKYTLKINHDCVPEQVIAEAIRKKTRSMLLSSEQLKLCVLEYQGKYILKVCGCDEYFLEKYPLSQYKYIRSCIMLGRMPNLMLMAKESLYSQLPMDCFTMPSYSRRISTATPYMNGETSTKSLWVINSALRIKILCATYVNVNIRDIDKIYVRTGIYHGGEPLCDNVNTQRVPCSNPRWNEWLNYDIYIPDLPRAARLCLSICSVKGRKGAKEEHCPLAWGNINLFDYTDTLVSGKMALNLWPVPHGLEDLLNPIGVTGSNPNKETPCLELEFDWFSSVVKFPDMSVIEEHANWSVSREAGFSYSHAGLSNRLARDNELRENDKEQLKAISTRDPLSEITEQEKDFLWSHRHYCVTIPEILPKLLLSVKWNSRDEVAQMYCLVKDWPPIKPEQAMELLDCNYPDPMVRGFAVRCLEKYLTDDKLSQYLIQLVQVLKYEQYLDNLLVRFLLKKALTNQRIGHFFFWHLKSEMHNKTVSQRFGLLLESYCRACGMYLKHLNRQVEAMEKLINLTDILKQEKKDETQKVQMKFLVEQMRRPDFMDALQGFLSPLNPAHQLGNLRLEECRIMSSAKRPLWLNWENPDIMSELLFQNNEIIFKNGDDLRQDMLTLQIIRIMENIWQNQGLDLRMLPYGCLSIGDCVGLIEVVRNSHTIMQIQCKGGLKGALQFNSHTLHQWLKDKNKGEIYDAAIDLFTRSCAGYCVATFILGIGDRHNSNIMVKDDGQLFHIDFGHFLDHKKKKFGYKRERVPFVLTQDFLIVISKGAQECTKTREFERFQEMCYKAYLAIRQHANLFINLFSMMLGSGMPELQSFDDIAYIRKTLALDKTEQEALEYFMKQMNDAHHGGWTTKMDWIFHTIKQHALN
# assay overview: Inhibition of recombinant human PI3Kalpha using diC8-PI(4,5)P2 as substrate after 3 hrs by fluorescence polarization method
reported metric: pIC50
Give bare numbers, as −log10 of the molar value.

molecule=O=S(=O)(c1ccc(F)cc1)c1nc2ccccc2nc1N1CCOCC1 experimental_value=5.60
molecule=COc1ccc(S(=O)(=O)c2nc3ccccc3nc2N2CCOCC2)cc1 experimental_value=5.85
molecule=Cc1ccc(S(=O)(=O)c2nc3ccccc3nc2N2CCOCC2)cc1 experimental_value=5.80
molecule=O=S(=O)(c1ccccc1)c1nc2ccccc2nc1N1CCCCC1 experimental_value=4.66

Proceeding to the next compound to report its pIC50.
Any idea what pIC50 was measured for O=S(=O)(c1ccc(Br)cc1)c1nc2ccccc2nc1N1CCOCC1 ?
5.54

---

# Test system: PC-3
# assay overview: cells
# measurement context: Homo sapiens, PC-3, 72 h
# Description: Cytotoxicity against human PC3 cells after 72 hrs by MTT assay
reported metric: pIC50
Give bare numbers, as −log10 of the molar value.

Solved entries:
molecule=O=S(=O)(c1ccc(Br)cc1)c1nc2ccccc2nc1N1CCOCC1 reported_metric=pIC50 experimental_value=4.59
molecule=O=S(=O)(c1ccccc1)c1nc2ccccc2nc1N1CCCCC1 reported_metric=pIC50 experimental_value=4.57
molecule=COc1ccc(S(=O)(=O)c2nc3ccccc3nc2N2CCOCC2)cc1 reported_metric=pIC50 experimental_value=6.06
molecule=Cc1ccc(S(=O)(=O)c2nc3ccccc3nc2N2CCOCC2)cc1 reported_metric=pIC50 experimental_value=5.03

Proceeding to the next compound to report its pIC50.
Any idea what pIC50 was measured for O=S(=O)(c1ccc(F)cc1)c1nc2ccccc2nc1N1CCOCC1 ?
5.47

---

# Tested on: HL-60
# assay overview: Cytotoxicity against human HL60 cells after 72 hrs by MTT assay
# Type: functional, cell-based
# measurement context: HL-60, 72 h
Could you please report measured pIC50 for the items listed next?
Answers are plain numbers, as −log10 of the molar value.

Solved entries:
molecule=O=S(=O)(c1ccc(Br)cc1)c1nc2ccccc2nc1N1CCOCC1 target_system=HL-60 experimental_value=5.47
molecule=Cc1ccc(S(=O)(=O)c2nc3ccccc3nc2N2CCOCC2)cc1 target_system=HL-60 experimental_value=6.02
molecule=COc1ccc(S(=O)(=O)c2nc3ccccc3nc2N2CCOCC2)cc1 target_system=HL-60 experimental_value=5.32
molecule=O=S(=O)(c1ccccc1)c1nc2ccccc2nc1N1CCCCC1 target_system=HL-60 experimental_value=4.57
molecule=O=S(=O)(c1ccc(F)cc1)c1nc2ccccc2nc1N1CCOCC1 target_system=HL-60 experimental_value=5.76

Any idea what pIC50 was measured for c1ccc(Sc2nc3ccccc3nc2N2CCOCC2)cc1 ?
5.29
